- Test Method Notes: protein stability index of a GFP-peptide fusion (yeast GPS) (PSI 1-4); higher = more stable; sorted into four equal gates, so the index is relative within each strain
- Applied Conditions: doa10∆
Below, each entry is listed with its recorded protein stability index.
Lab note: jot down the number only; don't add units.

IDMDKLNTVLIADLDTE [RRP43] : 2.66

Suppose we examine the sequence NQQPQQQQQQQQNPKFL [SWI1] ; what protein stability index value has been reported?
2.96

Next sequence: FQHADNSSMRYGYWFDC [AAR2]
3.06

Next sequence: NISHLLEIASSIDCLLI [SWI1]
2.21

Next sequence: LERYYKEQADIYAKQQE [ARP7]
3.29

Next sequence: FNELCDPESRTQSYNNQ [POP1]
3.09

Next sequence: MITKRILEVGALASIQT [RPN12]
1.63

Next sequence: EPKQKANAVQNNNGNSA [SRP21]
3.07

Next sequence: VPKEGLFYFDSSFRPCP [BRR2]
3.17

* * *

- Test Method Notes: protein stability index of a GFP-peptide fusion (yeast GPS) (PSI 1-4); higher = more stable; sorted into four equal gates, so the index is relative within each strain
- Applied Conditions: pdr5∆
Measured Metric: protein stability index

Suppose we examine the sequence MPYTINELLEMVGLASG [BRR2] ; what protein stability index value has been reported?
2.31

Next sequence: QINIMPSLKAHFTEIKL [SIR3]
2.1

Next sequence: WQELARSTDEFNGAQLK [RPT5]
2.73

Next sequence: TILQHLSEAWRCWKANI [PRP8]
3.36

Next sequence: AVYFADTSGLKISNSEF [SIN4]
3.32

Next sequence: KAPKIQRLVTPQRLQRK [RPS6A]
2.95

Next sequence: ERKKQSDVLRFLQRVRV [RPL15B]
2.43

Next sequence: RADTDLAMNDDDFLSKK [SNF2]
3.59

* * *

- Test Method Notes: protein stability index of a GFP-peptide fusion (yeast GPS) (PSI 1-4); higher = more stable; sorted into four equal gates, so the index is relative within each strain
- Applied Conditions: doa10∆
Measured Metric: protein stability index
Lab note: jot down the number only; don't add units.

Please review the following examples before continuing.
PSVKRQKMAELEAARSE [PRP8] : 3.31
SKLSQEFLYPHLNFPNV [SNF12] : 2.88
EDFDVEHFSDEETYEEK [RPO26] : 3.64
SNNSTTNTFGSNSAGTS [YJL041W/NSP1] : 3.08
IQFLTIGAGVPSLEVAS [FAS1] : 1.18
TYVLNTWTNSKIFIKDP [YML103C/NUP188] : 2
VTHDCYRVTLESILQMN [RPC34] : 3.29
RKKTPAGDWKYDRQLSS [FAS2] : 1.25
SFTSATERHIQVGDGLE [PRE7] : 2.79
EIMYTGVSISVSFNSKQ [SMC3] : 1.61

Suppose we examine the sequence RKYDLFQNLELETEQLS [SMC2] ; what protein stability index value has been reported?
3.21

Next sequence: LREYLNLPEHIVPGTYI [RPS10A]
3.08

Next sequence: SYTFRSEKGLLSATQFT [FAS1]
2.67

Next sequence: KINTRGAEDPKVLINDQ [SWI1]
3.02

* * *

Below, each entry is listed with its recorded protein stability index.
- Test Method Notes: protein stability index of a GFP-peptide fusion (yeast GPS) (PSI 1-4); higher = more stable; sorted into four equal gates, so the index is relative within each strain
- Applied Conditions: doa10∆
Lab note: jot down the number only; don't add units.

Please review the following examples before continuing.
AFALAKEKAPTIIFIDE [RPT5] : 2.79
QYATVSKTHKTVSRAYG [RPL34A] : 2.05
FFMSERSSRLHIVYSLL [YML103C/NUP188] : 1.91
SKPAFSFGAKSDEKKDG [YJL041W/NSP1] : 3.25
TLNPKTGHLFLKIIHTS [PRP8] : 2.44
KFFHNGMIYNKLFVSKE [FAS2] : 2.87
DRVQQDSEDEDSMKDTT [YML031W/NDC1] : 3.25
LTQEELERIVQIMQNPT [RPS18A] : 2.64
YLTGGQQPTASDNIASL [SMD1] : 3
KENYPWELYTDFNEIVQ [POP3] : 2.42

Proceeding to the next sequence to report its protein stability index.
Suppose we examine the sequence FQFKLLQSNSKLASTLE [SMC4] ; what protein stability index value has been reported?
2.29

* * *

- Test Method Notes: protein stability index of a GFP-peptide fusion (yeast GPS) (PSI 1-4); higher = more stable; sorted into four equal gates, so the index is relative within each strain
- Applied Conditions: pdr5∆
Measured Metric: protein stability index
Lab note: jot down the number only; don't add units.

Suppose we examine the sequence KCSTRGLSTDHTTQIVN [YML103C/NUP188] ; what protein stability index value has been reported?
2.9

Next sequence: PLYARYINVNPQEETIT [ECM29]
2.85

Next sequence: DHIAIDWEDEEKYEDED [DSN1]
2.86

Next sequence: TGVMIGIDLAYNMYDAY [PRP8]
2.69

Next sequence: ERLVEFSNVNELQEKNV [YIL149C/MLP2]
3.36

Next sequence: QQREAVRQLYKGKKYQP [RPL35A]
3.42

Next sequence: FDDSSRIVNHKTKLWGF [LIN1]
2.98

Next sequence: YLSGAIPNQEVLQYSDW [YDL116W/NUP84]
1.83

Next sequence: IAGINKKKGLDENTSGK [PRP28]
3.47

Next sequence: VVGRTTRSNPPFKRKML [REC8]
2.77

Next sequence: LSEPLIKIGIRVMKSLS [YCG1]
1.98

Next sequence: SDELHNQSTIYEDEELS [LIN1]
2.87

Next sequence: VSYMMPSLYRLLNILIT [SRB8]
1.21

Next sequence: LVAAFIASLERELILAK [YCG1]
2.21

* * *

Below, each entry is listed with its recorded protein stability index.
- Test Method Notes: protein stability index of a GFP-peptide fusion (yeast GPS) (PSI 1-4); higher = more stable; sorted into four equal gates, so the index is relative within each strain
- Applied Conditions: doa10∆
Lab note: jot down the number only; don't add units.

LEESDVEDTLHVNKRKR [YOR098C/NUP1] : 3.26

Proceeding to the next sequence to report its protein stability index.
Suppose we examine the sequence YPVHEAHKGQIVLIKGI [SNU114] ; what protein stability index value has been reported?
1.52

* * *

Below, each entry is listed with its recorded protein stability index.
- Test Method Notes: protein stability index of a GFP-peptide fusion (yeast GPS) (PSI 1-4); higher = more stable; sorted into four equal gates, so the index is relative within each strain
- Applied Conditions: pdr5∆
Lab note: jot down the number only; don't add units.

Please review the following examples before continuing.
LMCLSSKYCEKSLPLLI [YCS4] : 2.71
NISHLLEIASSIDCLLI [SWI1] : 2.16
FVWLSSEENIGSGLLKL [SWI1] : 3.19
VRLPTKVLKISTRKTPN [RPS20] : 2.22
DQEIVIQQLHSVLNPFL [ISW2] : 2.09

Suppose we examine the sequence VTNIRRIIQDNISPRLV [RRP46] ; what protein stability index value has been reported?
2.63

Next sequence: GEDSTKPLGPCDVFWVQ [POP1]
2.97

* * *

- Test Method Notes: protein stability index of a GFP-peptide fusion (yeast GPS) (PSI 1-4); higher = more stable; sorted into four equal gates, so the index is relative within each strain
- Applied Conditions: ubr1∆
The threshold is inclusive: protein stability index of exactly 3 counts as Fulfilled; values below receive Not fulfilled.

Illustrative cases are given below, each with its answer.
IINKLIHIQSKENYPWE [POP3] : Not fulfilled
QQQLYGGNNNNNSTGIA [SWI1] : Fulfilled
TSAGIMDHEEARRKHVS [RPS22A] : Not fulfilled
DFKPPYIYSHVNKVPQN [SWP82] : Not fulfilled
SSDALSKEKANFLETIA [SIR4] : Not fulfilled

Could you verify whether the entry ISIDSWPTTHKYPLGHF [DIS3] shows protein stability index of no less than 3?
Not fulfilled

Next sequence: FDERIKFANQLHDEYLV [RPN3]
Not fulfilled

Next sequence: DFDGDEMNLHVPQTEEA [RPO31]
Fulfilled

Next sequence: HKSLIRSISWAPSIGRW [YGL100W/SEH1]
Fulfilled

Next sequence: HYLVLLVAKFLYPIFLL [YJR042W/NUP85]
Not fulfilled

Next sequence: KASLLLHVLVAHKLKKS [FAS2]
Not fulfilled

Next sequence: VDVKPKSPKERELEERA [RPC25]
Fulfilled

* * *

- Test Method Notes: protein stability index of a GFP-peptide fusion (yeast GPS) (PSI 1-4); higher = more stable; sorted into four equal gates, so the index is relative within each strain
- Applied Conditions: ubr1∆
Measured Metric: protein stability index
Lab note: jot down the number only; don't add units.

Please review the following examples before continuing.
EILTNQQRGITYLNEVL [YGR119C/NUP57] : 2.71
KPYDINVVLVTNDRLNR [DIS3] : 3.08
PQFNSPYDSNNSNTNLN [SWI1] : 2.9

Suppose we examine the sequence RQFEVKQLQLAMHNSKA [POP1] ; what protein stability index value has been reported?
1.61

Next sequence: DLLVIDSHKRIPDMSKN [SNU114]
3.24

Next sequence: LIDFEYVNDVAIYNNPT [RRI2]
2.95

Next sequence: GFYQIKKIVDSKKLNLK [YMR129W/POM152]
2.62
